Data origin, for the record: patent US9062041B2

molecular target: EP2 subtype of the human PGE2 receptor (Homo sapiens); test: cAMP antagonism test on the human EP2 receptor (HTRF cAMP detection); format: cell-based; details: hEP2 receptor, read-out: Antagonism hEP2 IC50
Sequence (P43116 whole entry): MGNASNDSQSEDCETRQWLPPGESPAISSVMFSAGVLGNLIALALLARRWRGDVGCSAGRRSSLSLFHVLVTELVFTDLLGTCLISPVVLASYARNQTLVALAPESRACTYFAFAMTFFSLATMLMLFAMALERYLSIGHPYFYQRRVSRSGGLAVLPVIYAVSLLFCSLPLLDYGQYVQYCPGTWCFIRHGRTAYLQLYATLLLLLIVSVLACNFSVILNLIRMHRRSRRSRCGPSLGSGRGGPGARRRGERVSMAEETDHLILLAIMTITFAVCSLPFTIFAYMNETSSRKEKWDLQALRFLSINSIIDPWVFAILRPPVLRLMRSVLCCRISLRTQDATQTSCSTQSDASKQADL
# maps each entry to its IC50
Number only, in nM; omit the unit.

Some solved entries appear below for comparison.
Enquiry: Quickly give me recorded IC50 for Cc1c(C(=O)NCC2COCCO2)ccc2nn(CC3CCN(C(=O)c4ccc(Oc5ccc(C(F)(F)F)cc5)cc4)CC3)cc12 (single isomer, unassigned) [Example 419]
Return: 10.9

Enquiry: Quickly give me recorded IC50 for `Cc1c(C(=O)NCC(F)(F)F)ccc2nn(CC3CCN(C(=O)c4ccc(-c5cnc(C(F)(F)F)nc5)cc4)CC3)cc12`
Return: 256

Enquiry: Quickly give me recorded IC50 for `COCCNC(=O)c1ccc2nn(CC3CCN(C(=O)c4ccc(-c5cncc(Cl)c5)cc4)CC3)cc2c1C`
Return: 13.1

Enquiry: Quickly give me recorded IC50 for `COCCNC(=O)c1ccc2nn(CC3CCN(C(=O)c4ccc(-c5ccc(Cl)cn5)cc4)CC3)cc2c1C`
Return: 12

Enquiry: Quickly give me recorded IC50 for `Cc1cc2nn(CC3CCN(C(=O)c4ccc(S(F)(F)(F)(F)F)cc4)CC3)cc2cc1C(=O)NCCN1CCOCC1`
Return: 53.9

Continuing:
Enquiry: Quickly give me recorded IC50 for `Cc1c(C(=O)NCC(F)(F)F)ccc2nn(CC3CCN(C(=O)c4ccc(Oc5cccc(C(F)(F)F)c5)cc4)CC3)cc12`
Return: 22.2

Enquiry: Quickly give me recorded IC50 for `COCCNC(=O)c1ccc2nn(CC3CCN(C(=O)c4ccc(Oc5ccc(C)cc5)cc4)CC3)cc2c1C`
Return: 4.17

Enquiry: Quickly give me recorded IC50 for `COCCNC(=O)c1ccc2nn(CC3CCN(C(=O)c4ccc(-n5cnnc5)cc4)CC3)cc2c1C`
Return: 830

Enquiry: Quickly give me recorded IC50 for `Cc1c(C(=O)NCC(F)(F)F)ccc2nn(CC3CN(C(=O)c4ccc(Cl)cc4)C3)cc12`
Return: 309

Enquiry: Quickly give me recorded IC50 for `Cc1c(C(=O)NCCOC(F)(F)F)ccc2nn(CC3CCN(C(=O)c4ccc(Oc5ccc(F)cc5)cc4)CC3)cc12`
Return: 6.46

Enquiry: Quickly give me recorded IC50 for `CCOc1c(C(=O)NCCOC)ccc2nn(CC3CN(C(=O)c4ccc(S(F)(F)(F)(F)F)cc4)C3)cc12`
Return: 47.9

Enquiry: Quickly give me recorded IC50 for COC(C)CNC(=O)c1cc2cn(CC3CN(C(=O)c4ccc(Cl)cc4)C3)nc2cc1C (racemic)
Return: 206

Enquiry: Quickly give me recorded IC50 for `Cc1cc2nn(CC3CN(C(=O)c4ccc(Cl)cc4)C3)cc2cc1C(=O)NCC(F)(F)F`
Return: 272

Enquiry: Quickly give me recorded IC50 for `Cc1c(C(=O)NCCOCC2CC2)ccc2nn(CC3CCN(C(=O)c4ccc(Cl)cc4)CC3)cc12`
Return: 19.2
